Where these numbers come from: patent US12583870B2

# Tested on: KARPAS-422 cells
# measurement-protocol: Cell proliferation analysis, KARPAS-422, 13 days, CellTiter-Glo
# Assay type: cell-based
# condition-notes: Homo sapiens, 312 h
Each record here notes measured IC50.
Dear colleague, please return just the value in µM, with no unit written.

Past entries and their recorded results:
| compound-string | unit-of-measurement | IC50 |
| --- | --- | --- |
| N#Cc1cnc2c(-c3cnc(NCc4c(F)ccc5c4CCO5)n4cnnc34)cc(F)cn12 | µM | 0.0083 |
| Fc1ccc2c(c1CNc1ncc(-c3cccn4ccnc34)c3nncn13)[C@H]1C[C@H]1O2 | µM | 0.0006 |
| Fc1ccc2c(c1CNc1ncc(-c3cccc4ncoc34)c3nncn13)CCO2 | µM | 0.0136 |
| COc1ccc(-c2cnc(NCc3c(F)ccc4c3CCO4)n3cnnc23)c2ncnn12 | µM | 0.0011 |
| CCOC(=O)c1cnc2c(-c3cnc(NCc4c(F)ccc5c4CCO5)n4cnnc34)ccc(C)n12 | µM | 0.0047 |

Req: What IC50 appears in the records for this compound with KARPAS-422 cells? `Fc1ccc2c(c1CNc1ncc(-c3cccc4cn[nH]c34)c3nncn13)CCO2`
Resp: 0.0023

Req: Now give it for `CN(C)Cc1ccc(-c2cnc(NCc3c(F)ccc4c3CCO4)n3cnnc23)c2ncnn12` too.
Resp: 0.0005
